Test system: ATP;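 further: ATP exposure 15 min at 22 °C before imaging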
testSummary: switch fluorescence ratio, 500 uM ATP over buffer (Cy3 cluster intensity, sum of 5 cycles each) (fold (ratio)); higher = stronger signal-on switching upon ATP binding; sequences stand for … in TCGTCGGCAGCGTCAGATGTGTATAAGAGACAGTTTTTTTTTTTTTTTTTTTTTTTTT…TC
experimentalParameters: aptamer strand: ATP DNA aptamer (quencher-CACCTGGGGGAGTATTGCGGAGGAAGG + anchor), 100 nM annealed; ATP concentration: 500 uM
readoutLabel: switch fluorescence ratio
Answer using only a numeral; do not append any unit.

In one line, give reported switch fluorescence ratio of the entry `GGGTTGATTT` . 0.958

In one line, give reported switch fluorescence ratio of the entry `GAGTTGTTGG` . 0.968

In one line, give reported switch fluorescence ratio of the entry `TCTGTGCCTT` . 1.06

In one line, give reported switch fluorescence ratio of the entry `GCTGAGCGGA` . 0.995

In one line, give reported switch fluorescence ratio of the entry `TTATTGTGTA` . 0.979

In one line, give reported switch fluorescence ratio of the entry `GGTCCAATTA` . 0.977

In one line, give reported switch fluorescence ratio of the entry `TTTCGGAAGG` . 0.988

In one line, give reported switch fluorescence ratio of the entry `CGTTGGGTTT` . 1.03

In one line, give reported switch fluorescence ratio of the entry `CTATTTCTGA` . 0.931

In one line, give reported switch fluorescence ratio of the entry `GCTAAGTTTA` . 0.996

In one line, give reported switch fluorescence ratio of the entry `TGATTGGCTG` . 1.02

In one line, give reported switch fluorescence ratio of the entry `GGTTCAAGGC` . 1.05

In one line, give reported switch fluorescence ratio of the entry `GGTTGTTCTG` . 0.997

In one line, give reported switch fluorescence ratio of the entry `CAGGGGAAAT` . 0.993

In one line, give reported switch fluorescence ratio of the entry `ACAGGCCAGG` . 1.23

In one line, give reported switch fluorescence ratio of the entry `GGGGGATAGG` . 1

In one line, give reported switch fluorescence ratio of the entry `ACCAGTAGAC` . 1.04

In one line, give reported switch fluorescence ratio of the entry `TACTGTGGGT` . 0.973

In one line, give reported switch fluorescence ratio of the entry `TAATTTGTGC` . 1.01

In one line, give reported switch fluorescence ratio of the entry `TGATTAGTCG` . 1.01

###

System: ATP;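 further: ATP exposure 15 min at 22 °C before imaging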
testSummary: switch fluorescence ratio, 500 uM ATP over buffer (Cy3 cluster intensity, sum of 5 cycles each) (fold (ratio)); higher = stronger signal-on switching upon ATP binding; sequences stand for … in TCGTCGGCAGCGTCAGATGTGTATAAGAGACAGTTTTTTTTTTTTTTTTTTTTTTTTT…TC
experimentalParameters: aptamer strand: ATP DNA aptamer (quencher-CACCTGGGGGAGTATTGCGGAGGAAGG + anchor), 100 nM annealed; ATP concentration: 500 uM
readoutLabel: switch fluorescence ratio
Answer using only a numeral; do not append any unit.

In one line, give reported switch fluorescence ratio of the entry `TATAAGAGCG` . 1

In one line, give reported switch fluorescence ratio of the entry `CGTGGGGAGG` . 1.05

In one line, give reported switch fluorescence ratio of the entry `ATTGGGTCTA` . 0.978

In one line, give reported switch fluorescence ratio of the entry `CAAGGATTAA` . 1.01

In one line, give reported switch fluorescence ratio of the entry `ATGTCTGGGA` . 1

In one line, give reported switch fluorescence ratio of the entry `GCTGTGTGTC` . 1.01

In one line, give reported switch fluorescence ratio of the entry `TTATAGAAGA` . 1.01

In one line, give reported switch fluorescence ratio of the entry `TAAAGAAGGT` . 1.01

In one line, give reported switch fluorescence ratio of the entry `TAGGCGTGCT` . 0.987

In one line, give reported switch fluorescence ratio of the entry `GAAGGAATAG` . 1.66

In one line, give reported switch fluorescence ratio of the entry `AAGGGGATT` . 1.01

In one line, give reported switch fluorescence ratio of the entry `GAGTACCGAA` . 0.969

In one line, give reported switch fluorescence ratio of the entry `ATTTGTATGT` . 0.963

In one line, give reported switch fluorescence ratio of the entry `TGTGGTGGTG` . 0.978

In one line, give reported switch fluorescence ratio of the entry `CGCCGATTAA` . 1.03

In one line, give reported switch fluorescence ratio of the entry `GGTTAAAACT` . 0.987

In one line, give reported switch fluorescence ratio of the entry `TTTTCTTAGA` . 0.977

In one line, give reported switch fluorescence ratio of the entry `TTTGGGCAAG` . 1.06

In one line, give reported switch fluorescence ratio of the entry `TTTCTAAGGA` . 0.978

In one line, give reported switch fluorescence ratio of the entry `ATTTCGTTTC` . 1.05

In one line, give reported switch fluorescence ratio of the entry `AGGGATGGGT` . 0.976

###

Exercise: for every item that follows, state its recorded switch fluorescence ratio.
System: ATP;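 further: ATP exposure 15 min at 22 °C before imaging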
testSummary: switch fluorescence ratio, 500 uM ATP over buffer (Cy3 cluster intensity, sum of 5 cycles each) (fold (ratio)); higher = stronger signal-on switching upon ATP binding; sequences stand for … in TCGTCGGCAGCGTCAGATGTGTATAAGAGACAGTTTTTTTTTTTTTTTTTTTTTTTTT…TC
experimentalParameters: aptamer strand: ATP DNA aptamer (quencher-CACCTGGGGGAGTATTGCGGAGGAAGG + anchor), 100 nM annealed; ATP concentration: 500 uM
Answer using only a numeral; do not append any unit.

In one line, give reported switch fluorescence ratio of the entry `ACACTGCCAT` . 1.16

In one line, give reported switch fluorescence ratio of the entry `TACTTGTTTT` . 1

In one line, give reported switch fluorescence ratio of the entry `AGATGAGGGC` . 1.04

In one line, give reported switch fluorescence ratio of the entry `TTTCTAGGTG` . 2.06

In one line, give reported switch fluorescence ratio of the entry `TTGAGTTTGG` . 0.985

In one line, give reported switch fluorescence ratio of the entry `GAGTATACGT` . 1.02

In one line, give reported switch fluorescence ratio of the entry `AGAAGATTGA` . 0.999

In one line, give reported switch fluorescence ratio of the entry `CGTTGAGGAA` . 0.985

In one line, give reported switch fluorescence ratio of the entry `AATGTTGTCC` . 1.01

In one line, give reported switch fluorescence ratio of the entry `AGTGGCCCCG` . 1

In one line, give reported switch fluorescence ratio of the entry `AAGATTTCGG` . 1.02

In one line, give reported switch fluorescence ratio of the entry `GTTAGAGAGC` . 1.06

In one line, give reported switch fluorescence ratio of the entry `TCGCCGCTTT` . 1.76

In one line, give reported switch fluorescence ratio of the entry `ATGGATGACA` . 0.951

In one line, give reported switch fluorescence ratio of the entry `TCTCTATTT` . 0.965

In one line, give reported switch fluorescence ratio of the entry `ATGAAATCTG` . 1.06

In one line, give reported switch fluorescence ratio of the entry `CGGGTGTAAG` . 1.01

In one line, give reported switch fluorescence ratio of the entry `CGTGCAAATT` . 0.985

In one line, give reported switch fluorescence ratio of the entry `TTTTGGATCT` . 0.982

In one line, give reported switch fluorescence ratio of the entry `GGGGAAAACA` . 1

In one line, give reported switch fluorescence ratio of the entry `ACAAATGCAG` . 1.01

###

System: ATP;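 further: ATP exposure 15 min at 22 °C before imaging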
testSummary: switch fluorescence ratio, 500 uM ATP over buffer (Cy3 cluster intensity, sum of 5 cycles each) (fold (ratio)); higher = stronger signal-on switching upon ATP binding; sequences stand for … in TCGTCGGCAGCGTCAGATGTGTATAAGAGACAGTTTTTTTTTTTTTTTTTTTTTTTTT…TC
experimentalParameters: aptamer strand: ATP DNA aptamer (quencher-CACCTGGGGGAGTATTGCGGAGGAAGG + anchor), 100 nM annealed; ATP concentration: 500 uM
readoutLabel: switch fluorescence ratio
Answer using only a numeral; do not append any unit.

In one line, give reported switch fluorescence ratio of the entry `TCCCACGGCC` . 1.08

In one line, give reported switch fluorescence ratio of the entry `TGCGGGGAGG` . 1.01

In one line, give reported switch fluorescence ratio of the entry `TATTTGGGGA` . 0.999

In one line, give reported switch fluorescence ratio of the entry `ATTATGTAGG` . 0.988

In one line, give reported switch fluorescence ratio of the entry `TTTCGCCAGA` . 1.03

In one line, give reported switch fluorescence ratio of the entry `TTAATTTATG` . 0.976

In one line, give reported switch fluorescence ratio of the entry `ATTTTTGGCG` . 0.987

In one line, give reported switch fluorescence ratio of the entry `GGGGTGGGAA` . 0.98

In one line, give reported switch fluorescence ratio of the entry `TAGTAGGTAG` . 0.985

In one line, give reported switch fluorescence ratio of the entry `GATGTGGGGG` . 0.99

In one line, give reported switch fluorescence ratio of the entry `AGTACTGACC` . 1.23

In one line, give reported switch fluorescence ratio of the entry `AATGGTGATT` . 1.02

In one line, give reported switch fluorescence ratio of the entry `TGTATGGGGA` . 1

In one line, give reported switch fluorescence ratio of the entry `GTTGGGGAGT` . 0.978

In one line, give reported switch fluorescence ratio of the entry `TTGAAGTTAG` . 0.99

In one line, give reported switch fluorescence ratio of the entry `ATAAATACAG` . 0.996

In one line, give reported switch fluorescence ratio of the entry `TTTTTTGAGT` . 1

In one line, give reported switch fluorescence ratio of the entry `TTCATCTGCA` . 2.19

In one line, give reported switch fluorescence ratio of the entry `GAGGTTTTTT` . 0.987

In one line, give reported switch fluorescence ratio of the entry `GGGGTTCCTT` . 1
